Tested on: HepG2
Experiment: Cytotoxicity against human HepG2 cells after overnight incubation by one cell proliferation assay
Format: cell-based
Readout: Activity (µg/mL)

NCC(=O)NCCOc1ccc2sc(CNc3nncc(-c4c(Cl)cccc4Cl)n3)nc2c1; 18
Oc1ccc2sc(CNc3nncc(-c4c(O)ccc5ccccc45)n3)nc2c1; 20

---

Experiment: Competitive reversible inhibition of Escherichia coli O18:K1 C7 hldE-K expressed in Escherichia coli BL21 using D-manno-heptose 7-phosphate as substrate incubated for 30 mins prior to substrate addition measured after 30 mins by double reciprocal plot analysis in presence of ATP
Readout: Ki (µM)

COc1cccc(OC)c1-c1cnnc(NCc2nc3ccccc3s2)n1; 2.5

---

Assay: Inhibition of Neisseria meningitidis 2C43 hldE-K expressed in Escherichia coli BL21 using beta-heptose 7-phosphate as substrate incubated for 30 mins prior to substrate addition measured after 30 mins by luminescence assay
Decide using IC50 alone. Strictly below 10000 nM: 1. Equal to or above 10000 nM: 0.

O=C(COc1ccc2sc(CNc3nncc(-c4c(Cl)cccc4Cl)n3)nc2c1)NCCO; 1
Oc1ccc2sc(CNc3nncc(-c4c(O)ccc5ccccc45)n3)nc2c1; 1
COc1ccc2sc(CNc3nncc(-c4c(Cl)cccc4Cl)n3)nc2c1; 0
O=C(O)COc1ccc2sc(CNc3nncc(-c4c(Cl)cccc4Cl)n3)nc2c1; 1

---

The entries below are paired with their reported MIC.
Test system: Escherichia coli
Test: Antimicrobial activity against acrAB, tolC-deficient Escherichia coli str. K-12 substr. MG1655 after overnight incubation in absence of erythromycin
Type: functional
Readout: MIC

NC(=O)COc1ccc2sc(CNc3nncc(-c4c(Cl)cccc4Cl)n3)nc2c1; > 32 µg/mL
Oc1ccc2sc(CNc3nncc(-c4c(Cl)cccc4Cl)n3)nc2c1; > 32 µg/mL
COc1ccc2sc(CNc3nncc(-c4c(C)cc(NCCN(C)C)cc4C)n3)nc2c1; > 32 µg/mL
O=C(CO)NCCOc1ccc2sc(CNc3nncc(-c4c(Cl)cccc4Cl)n3)nc2c1; > 32 µg/mL
COc1ccc2sc(CNc3nncc(-c4c(C)cccc4C)n3)nc2c1; > 32 µg/mL
OCCOc1ccc2sc(CNc3nncc(-c4c(Cl)cccc4Cl)n3)nc2c1; 16 µg/mL
Oc1ccc2sc(CNc3nncc(-c4c(O)ccc5ccccc45)n3)nc2c1; 2 µg/mL

---

Tested on: Escherichia coli
Experiment: Antimicrobial activity against acrAB, tolC-deficient Escherichia coli str. K-12 substr. MG1655 after overnight incubation in absence of erythromycin
Format: functional
Readout: MIC

O=C(O)COc1ccc2sc(CNc3nncc(-c4c(Cl)cccc4Cl)n3)nc2c1; > 32 µg/mL
COc1ccc2sc(CNc3nncc(-c4c(C)cccc4O)n3)nc2c1; > 32 µg/mL
COc1ccc2sc(CNc3nncc(-c4c(OC)ccc5ccccc45)n3)nc2c1; > 32 µg/mL
O=C(COc1ccc2sc(CNc3nncc(-c4c(Cl)cccc4Cl)n3)nc2c1)NCCO; > 32 µg/mL
CS(=O)(=O)NC(=O)COc1ccc2sc(CNc3nncc(-c4c(Cl)cccc4Cl)n3)nc2c1; > 32 µg/mL
CN(C)CCOc1ccc2sc(CNc3nncc(-c4c(Cl)cccc4Cl)n3)nc2c1; 32 µg/mL
COc1ccc2sc(CNc3nncc(-c4c(Cl)cccc4Cl)n3)nc2c1; > 32 µg/mL
NCC(=O)NCCOc1ccc2sc(CNc3nncc(-c4c(Cl)cccc4Cl)n3)nc2c1; 32 µg/mL
COc1ccc2sc(CNc3nncc(-c4c(C)cc(NC(C)=O)cc4C)n3)nc2c1; > 32 µg/mL
COc1ccc2sc(CNc3nncc(-c4cc(-c5ccn[nH]5)ccc4Cl)n3)nc2c1; > 32 µg/mL

---

Test system: HepG2
Assay: Cytotoxicity against human HepG2 cells after overnight incubation by one cell proliferation assay
Format: cell-based
Readout: Activity

OCCOc1ccc2sc(CNc3nncc(-c4c(Cl)cccc4Cl)n3)nc2c1; > 32 µg/mL
O=C(COc1ccc2sc(CNc3nncc(-c4c(Cl)cccc4Cl)n3)nc2c1)NCCO; > 32 µg/mL
CN(C)CCOc1ccc2sc(CNc3nncc(-c4c(Cl)cccc4Cl)n3)nc2c1; > 32 µg/mL

Hello, the source for this data is ChEMBL document CHEMBL2321650, in case you need it.
